Target: p110β/p85α (Homo sapiens (Human), UniProt P42338)
Sequence (P42338 whole entry, one chain of several): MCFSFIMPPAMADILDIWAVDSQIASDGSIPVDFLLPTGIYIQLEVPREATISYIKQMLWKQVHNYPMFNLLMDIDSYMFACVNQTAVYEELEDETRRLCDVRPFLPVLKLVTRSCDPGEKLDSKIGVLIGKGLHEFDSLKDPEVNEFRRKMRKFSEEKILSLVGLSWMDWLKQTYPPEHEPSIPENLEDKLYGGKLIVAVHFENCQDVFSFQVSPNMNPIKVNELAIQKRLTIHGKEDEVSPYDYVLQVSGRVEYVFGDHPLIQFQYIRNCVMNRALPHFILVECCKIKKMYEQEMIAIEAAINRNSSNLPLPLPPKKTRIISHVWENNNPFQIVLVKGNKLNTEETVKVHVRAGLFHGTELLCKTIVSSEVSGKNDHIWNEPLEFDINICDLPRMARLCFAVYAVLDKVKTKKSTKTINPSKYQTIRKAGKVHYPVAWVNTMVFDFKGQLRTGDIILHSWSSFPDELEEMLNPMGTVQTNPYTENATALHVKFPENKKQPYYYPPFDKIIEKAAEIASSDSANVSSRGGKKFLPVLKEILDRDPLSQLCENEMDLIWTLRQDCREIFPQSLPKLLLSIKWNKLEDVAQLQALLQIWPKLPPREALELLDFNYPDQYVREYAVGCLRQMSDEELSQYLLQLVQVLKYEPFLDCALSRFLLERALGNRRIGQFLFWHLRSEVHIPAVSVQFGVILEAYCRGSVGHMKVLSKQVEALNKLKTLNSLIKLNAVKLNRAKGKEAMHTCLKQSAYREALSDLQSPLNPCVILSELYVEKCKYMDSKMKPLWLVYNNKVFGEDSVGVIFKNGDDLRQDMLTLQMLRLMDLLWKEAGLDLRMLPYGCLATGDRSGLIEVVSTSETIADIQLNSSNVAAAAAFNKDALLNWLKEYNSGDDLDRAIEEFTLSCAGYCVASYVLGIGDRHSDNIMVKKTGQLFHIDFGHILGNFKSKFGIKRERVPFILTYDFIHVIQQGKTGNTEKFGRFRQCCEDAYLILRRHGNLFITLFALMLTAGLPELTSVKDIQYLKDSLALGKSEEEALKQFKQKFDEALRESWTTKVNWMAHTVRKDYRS
Assay: PI 3-Kinase (human) HTRF assay, p110β/p85α
Format: biochemical
Conditions: read-out: PI3K β In Vitro IC50
pIC50: −log10 of the molar value.
Please go through the items and note down their pIC50.

Recorded pIC50, per entry:
compound structure string: CC(=O)Nc1n[nH]c2cc(-c3ccc4oc(N)nc4c3)ccc12
target of assay: p110β/p85α (Homo sapiens (Human), UniProt P42338)
obs value: > 5.00

compound structure string: COc1ncc(-c2ccc3ncc(C(=O)N4CCOCC4)n3c2)cc1NS(=O)(=O)c1cccc(F)c1
target of assay: p110β/p85α (Homo sapiens (Human), UniProt P42338)
obs value: > 6.00

compound structure string: Nc1nc2cc(-c3ccc4ncc(C(=O)N5CC6CCC(C5)O6)n4c3)ccc2o1
target of assay: p110β/p85α (Homo sapiens (Human), UniProt P42338)
obs value: > 5.00

Then there is this compound:
Please indicate pIC50 recorded for CN1CC(n2cnc3ccc(-c4ccc5oc(N)nc5c4)cc3c2=O)C1 > 5.00

----------
Target: p110α/p85α (Homo sapiens (Human), UniProt P42336)
Sequence (P42336 whole entry): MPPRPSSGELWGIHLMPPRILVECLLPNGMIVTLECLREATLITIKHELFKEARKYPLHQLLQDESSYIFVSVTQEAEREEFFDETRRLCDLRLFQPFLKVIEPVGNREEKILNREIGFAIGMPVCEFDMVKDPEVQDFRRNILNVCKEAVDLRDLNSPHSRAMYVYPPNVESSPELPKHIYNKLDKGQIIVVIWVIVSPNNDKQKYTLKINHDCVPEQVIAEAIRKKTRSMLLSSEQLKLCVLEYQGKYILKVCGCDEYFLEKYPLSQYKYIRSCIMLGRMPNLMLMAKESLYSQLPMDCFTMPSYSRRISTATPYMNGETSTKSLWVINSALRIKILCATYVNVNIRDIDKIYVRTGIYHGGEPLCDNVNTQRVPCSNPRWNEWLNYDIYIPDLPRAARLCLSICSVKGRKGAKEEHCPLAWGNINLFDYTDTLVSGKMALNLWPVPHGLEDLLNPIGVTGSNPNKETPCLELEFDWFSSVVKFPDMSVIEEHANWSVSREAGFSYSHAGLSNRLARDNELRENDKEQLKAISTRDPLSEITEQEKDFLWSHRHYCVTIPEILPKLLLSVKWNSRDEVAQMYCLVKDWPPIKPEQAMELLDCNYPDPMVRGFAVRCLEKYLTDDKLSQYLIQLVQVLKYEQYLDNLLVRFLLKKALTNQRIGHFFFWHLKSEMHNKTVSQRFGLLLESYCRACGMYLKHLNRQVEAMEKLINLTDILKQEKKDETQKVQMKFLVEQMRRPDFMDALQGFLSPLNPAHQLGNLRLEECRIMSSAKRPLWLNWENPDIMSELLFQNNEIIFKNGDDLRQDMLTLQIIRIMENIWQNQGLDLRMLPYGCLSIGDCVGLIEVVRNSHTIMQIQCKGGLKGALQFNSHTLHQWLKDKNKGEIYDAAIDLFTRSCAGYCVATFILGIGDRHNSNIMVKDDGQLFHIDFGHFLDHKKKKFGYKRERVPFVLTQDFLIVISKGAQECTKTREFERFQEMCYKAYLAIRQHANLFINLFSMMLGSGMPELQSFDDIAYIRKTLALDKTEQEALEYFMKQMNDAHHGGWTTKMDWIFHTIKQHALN
Sequence (P27986 whole entry partner): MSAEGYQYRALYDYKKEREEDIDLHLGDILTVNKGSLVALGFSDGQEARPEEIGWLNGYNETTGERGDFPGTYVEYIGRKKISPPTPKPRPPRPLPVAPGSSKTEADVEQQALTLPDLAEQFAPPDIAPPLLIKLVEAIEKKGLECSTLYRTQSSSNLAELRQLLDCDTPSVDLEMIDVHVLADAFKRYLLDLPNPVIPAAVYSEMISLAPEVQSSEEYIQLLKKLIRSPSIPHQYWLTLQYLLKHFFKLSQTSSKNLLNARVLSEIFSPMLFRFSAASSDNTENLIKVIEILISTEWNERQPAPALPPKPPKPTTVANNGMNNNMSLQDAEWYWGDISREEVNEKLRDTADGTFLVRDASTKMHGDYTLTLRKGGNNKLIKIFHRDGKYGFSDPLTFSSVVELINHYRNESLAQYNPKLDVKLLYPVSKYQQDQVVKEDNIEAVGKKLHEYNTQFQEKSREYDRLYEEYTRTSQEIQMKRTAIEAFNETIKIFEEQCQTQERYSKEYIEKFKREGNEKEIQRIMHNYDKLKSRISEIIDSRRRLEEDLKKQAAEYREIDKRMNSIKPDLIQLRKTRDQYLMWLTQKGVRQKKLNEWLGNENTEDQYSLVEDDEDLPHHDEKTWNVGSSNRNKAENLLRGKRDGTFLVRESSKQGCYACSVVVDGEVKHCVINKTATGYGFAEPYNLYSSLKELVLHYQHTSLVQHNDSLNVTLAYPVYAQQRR
Assay: PI 3-Kinase (human) HTRF assay, p110α/p85α
Type: biochemical
Details: in vitro; read-out: PI3K α IC50
pIC50: −log10 of the molar value.
metric: pIC50

Recorded pIC50, per entry:
compound: CC(=O)N1CCN(C2CN(c3cnc4ccc(-c5ccc6oc(N)nc6c5)cc4n3)C2)CC1 [compound 327]
pIC50: > 7.00

compound: C[C@@H]1CN(C(=O)C2CN(c3cnc4ccc(-c5ccc6oc(N)nc6c5)cc4n3)C2)CCN1 [compound 267]
pIC50: > 7.00

Answer briefly: pIC50 recorded on p110α/p85α (Homo sapiens (Human), UniProt P42336) for Nc1nc2cc(-c3ccc4ncn(CCCN5CCCC5)c(=O)c4c3)ccc2o1 [compound 271] > 6.00

----------
Target: p110γ (Homo sapiens (Human))
Assay: PI 3-Kinase (human) HTRF assay, p110γ
Type: biochemical
Conditions: read-out: PI3K γ In Vitro IC50
Please go through the items and note down their IC50.

Recorded IC50, per entry:
compound structure string: CS(=O)(=O)Nc1cc(-c2ccc3ncc(C(=O)N4CCOCC4)n3c2)cnc1Cl
IC50: < 100 nM

compound structure string: Nc1nc2cc(-c3ccc4nc(N)sc4c3)cc(F)c2o1
IC50: < 100 nM

compound structure string: Nc1nc2c(-c3ccc4ncc(C(=O)N5CCOCC5)n4c3)cccc2o1
IC50: < 10000 nM

I'm hoping you can list IC50 for every molecule here, please.
1. O=C(c1cnc2ccc(-c3ccc(Cl)c(NS(=O)(=O)c4ccccc4)c3)cn12)N1CCOCC1
2. Cc1cc(-c2ccc3oc(N)nc3c2)cn2c(C(=O)N3CCOCC3)cnc12
3. Nc1nc2cc(-c3ccc4ncc(C(=O)N5CCC(F)CC5)n4c3)ccc2o1
4. Nc1nc2cc(-c3ccc4ncc(C(=O)N5CCC(F)(F)CC5)n4c3)ccc2o1

< 1000 nM
< 10000 nM
< 100 nM
< 10000 nM

I'm hoping you can list IC50 for every molecule here, please.
1. O=C(c1cnc2ccc(-c3cccc(NS(=O)(=O)c4ccccc4)c3)cn12)N1CCOCC1
2. Nc1nc2cc(-c3ccc4ncc(C(=O)N5CC6CCC(C5)O6)n4c3)ccc2o1
3. Nc1nc2cc(-c3ccc4ncc(C(=O)N5CCC6(C5)OCCO6)n4c3)ccc2o1
4. COc1ncc(-c2ccc3ncc(C(=O)N4CCOCC4)n3c2)cc1NS(=O)(=O)c1ccc(F)cc1F
5. Nc1nc2cc(-c3ccn4ncc(C(=O)N5CCC(N6CCOCC6)CC5)c4c3)ccc2o1
6. Nc1nc2cc(-c3ccc4ncc(C(=O)N5C6CCC5COC6)n4c3)ccc2o1

["< 10000 nM", "< 100 nM", "< 10000 nM", "< 100 nM", "< 10000 nM", "< 1000 nM"]

I'm hoping you can list IC50 for every molecule here, please.
1. COc1ncc(-c2ccc3ncn(C4CCN(C(C)C)CC4)c(=O)c3c2)cc1NS(=O)(=O)c1ccccc1
2. Nc1nc2cc(-c3ccc4ncc(C(=O)N5CC[C@@H](N6CCOCC6)C5)n4c3)ccc2o1
3. COc1ccc(-c2ccc3ncc(C(=O)N4CCOCC4)n3c2)cc1NS(=O)(=O)c1cccnc1
4. CC(=O)Nc1nc2cc(-c3cc(F)c4oc(N)nc4c3)ccc2s1
5. CC(C)N1CCC(n2cnc3ccc(-c4cncc(NS(=O)(=O)c5ccc(F)cc5F)c4)cc3c2=O)CC1

1. < 100 nM
2. < 1000 nM
3. < 100 nM
4. < 100 nM
5. < 1000 nM

I'm hoping you can list IC50 for every molecule here, please.
1. CC(C)N1CCC(n2cnc3ccc(-c4cnc(Cl)c(NS(C)(=O)=O)c4)cc3c2=O)CC1
2. Nc1nc2cc(-c3ccc4ncc(C(=O)N5CC(F)(F)C5)n4c3)ccc2o1
3. Cc1cc(-c2ccc3nc(N)oc3c2)cn2c(C(=O)N3CCOCC3)cnc12
4. Nc1nc2cc(-c3cc(F)c4oc(N)nc4c3)ccc2o1
5. C[C@H]1CN(C2CN(C(=O)c3cnc4ccc(-c5ccc6oc(N)nc6c5)cn34)C2)CCN1

["< 100 nM", "< 100 nM", "< 100 nM", "< 100 nM", "< 10000 nM"]

Please indicate IC50 recorded for CNc1noc2cc(-c3ccc4ncc(C(=O)N5CCOCC5)n4c3)ccc12 < 10000 nM

----------
Biological target: p110γ (Homo sapiens (Human), UniProt P48736)
Sequence (P48736 whole entry): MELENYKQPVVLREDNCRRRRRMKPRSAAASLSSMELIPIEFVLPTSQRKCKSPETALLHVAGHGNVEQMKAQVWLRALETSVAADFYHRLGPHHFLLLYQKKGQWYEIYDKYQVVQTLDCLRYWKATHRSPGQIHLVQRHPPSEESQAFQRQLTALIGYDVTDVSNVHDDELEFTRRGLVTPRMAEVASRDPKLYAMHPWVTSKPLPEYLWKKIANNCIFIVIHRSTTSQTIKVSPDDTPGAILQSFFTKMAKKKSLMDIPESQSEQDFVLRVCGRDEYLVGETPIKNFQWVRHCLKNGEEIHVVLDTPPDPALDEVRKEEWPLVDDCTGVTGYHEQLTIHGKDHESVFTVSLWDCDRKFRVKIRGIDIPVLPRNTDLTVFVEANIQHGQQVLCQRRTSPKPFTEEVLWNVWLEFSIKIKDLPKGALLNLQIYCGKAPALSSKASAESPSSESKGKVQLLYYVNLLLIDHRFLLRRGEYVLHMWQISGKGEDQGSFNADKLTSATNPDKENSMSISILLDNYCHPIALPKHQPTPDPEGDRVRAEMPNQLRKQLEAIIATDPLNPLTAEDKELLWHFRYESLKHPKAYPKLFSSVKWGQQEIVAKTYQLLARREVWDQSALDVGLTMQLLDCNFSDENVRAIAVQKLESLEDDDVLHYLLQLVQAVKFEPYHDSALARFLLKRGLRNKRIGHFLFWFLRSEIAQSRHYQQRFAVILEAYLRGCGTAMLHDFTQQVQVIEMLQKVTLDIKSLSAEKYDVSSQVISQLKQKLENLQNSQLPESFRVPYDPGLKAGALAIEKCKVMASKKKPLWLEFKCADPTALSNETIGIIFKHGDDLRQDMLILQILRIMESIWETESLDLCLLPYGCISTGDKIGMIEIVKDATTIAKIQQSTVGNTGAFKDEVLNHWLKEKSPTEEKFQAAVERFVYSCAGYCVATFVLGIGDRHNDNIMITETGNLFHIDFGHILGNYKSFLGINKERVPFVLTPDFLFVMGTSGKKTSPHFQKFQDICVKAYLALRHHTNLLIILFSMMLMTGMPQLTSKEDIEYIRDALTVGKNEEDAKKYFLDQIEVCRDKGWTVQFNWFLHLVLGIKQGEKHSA
Assay: PI 3-Kinase (human) HTRF assay, p110γ
Format: biochemical
Settings: read-out: PI3K γ In Vitro IC50
Please go through the items and note down their IC50.

Recorded IC50, per entry:
molecule: O=C(c1cnc2ccc(-c3cncc(NS(=O)(=O)c4ccccc4)c3)cn12)N1CCOCC1 [compound 424]
IC50: < 1000 nM

molecule: CC1(C)CN(C(=O)c2cnc3ccc(-c4ccc5oc(N)nc5c4)cn23)CCO1 [compound 513]
IC50: < 10000 nM

molecule: Nc1nc2cc(-c3ccc4ncc(C(=O)N5CC[C@H](N6CCOCC6)C5)n4c3)ccc2o1 [compound 465]
IC50: < 1000 nM

molecule: Nc1nc2cc(-c3ccc4c(N)n[nH]c4c3)ccc2o1 [compound 428]
IC50: < 1000 nM

molecule: Nc1nc2cc(-c3ccc4ncc(C(=O)N5CC[C@H](n6cccn6)C5)n4c3)ccc2o1 [compound 478]
IC50: < 1000 nM

molecule: COc1ccc(-c2ccc3ncc(C(=O)N4CCOCC4)n3c2)cc1NS(=O)(=O)c1ccccc1 [compound 455]
IC50: < 10000 nM

I'm hoping you can list IC50 for every molecule here, please.
1. CC(=O)Nc1cc2ccc(-c3cc(F)c4oc(N)nc4c3)cn2n1 [compound 401]
2. Nc1nc2cc(-c3ccc4sc(N)nc4c3)cc(F)c2o1 [compound 437]

1: < 10000 nM; 2: < 1000 nM

I'm hoping you can list IC50 for every molecule here, please.
1. COc1ncc(-c2ccc3ncn(C4CCN(C)CC4)c(=O)c3c2)cc1NS(=O)(=O)c1ccccc1 [compound 524]
2. CN1CCC(n2cnc3ccc(-c4cnc(Cl)c(NS(=O)(=O)c5ccccc5)c4)cc3c2=O)CC1 [compound 527]
3. Nc1nc2cc(-c3ccc4ncc(C(=O)N5CC[C@@H](n6cccn6)C5)n4c3)ccc2o1 [compound 477]
4. COc1ncc(-c2ccc3ncc(C(=O)N4CCOCC4)n3c2)cc1NS(=O)(=O)c1ccccc1F [compound 422]
5. O=C(c1cnc2ccc(-c3cccc(NS(=O)(=O)c4ccc(F)cc4F)c3)cn12)N1CCOCC1 [compound 454]

1. < 1000 nM
2. < 1000 nM
3. < 1000 nM
4. < 100 nM
5. < 10000 nM

----------
Biological target: p110β/p85α (Homo sapiens (Human))
Assay: PI 3-Kinase (human) HTRF assay, p110β/p85α
Format: biochemical
Details: read-out: PI3K β IC50
Please go through the items and note down their IC50.

compound: Nc1nc2cc(-c3ccc4ncc(C(=O)N5CCNCC5)n4c3)ccc2o1 [compound 111]
IC50: < 10000 nM

compound: Nc1nc2cc(-c3ccc4ncc(C(=O)N5CCCCC5)n4c3)ccc2o1 [compound 196]
IC50: < 10000 nM

compound: CCn1cnc2ccc(-c3ccc4oc(N)nc4c3)cc2c1=O [compound 183]
IC50: < 10000 nM

I'm hoping you can list IC50 for every compound here, please.
1. Nc1nc2cc(-c3ccc4ncc(N5CCCC5)nc4c3)ccc2o1 [compound 176]
2. Nc1nc2cc(-c3ccc4nccc(-c5cn[nH]c5)c4c3)ccc2o1 [compound 20]
3. Nc1nc2ccc(-c3ccc4ncc(N5CCOCC5)nc4c3)cc2o1 [compound 117]
4. Cc1nccn1-c1cnc2ccc(-c3ccc4oc(N)nc4c3)cc2n1 [compound 174]

["< 1000 nM", "< 100 nM", "< 1000 nM", "< 1000 nM"]

I'm hoping you can list IC50 for every compound here, please.
1. Nc1nc2cc(-c3ccc4ncc(-c5cnn(CCO)c5)nc4c3)ccc2o1 [compound 108]
2. CC(C)N1CCC(Nc2ncnc3ccc(-c4ccc5oc(N)nc5c4)cc23)CC1 [compound 101]
3. Nc1nc2cc(-c3ccc4ncc(-c5cccnc5)n4n3)ccc2o1 [compound 58]
4. CC(N)C(=O)N1CCN(c2cnc3ccc(-c4ccc5oc(N)nc5c4)cc3n2)CC1 (stereo not drawn) [compound 134]

1. < 10000 nM
2. < 10000 nM
3. < 100 nM
4. < 1000 nM

Please indicate IC50 recorded for Nc1nc2cc(-c3ccc4ncc(-c5ccncc5)n4n3)ccc2o1 [compound 10] < 1000 nM

These data points were gathered from patent US11547697B2.
